- run.description: NCI Yeast Anticancer Drug Screen. Data for the bub3 strain (AID 167)
- condition: S. cerevisiae bub3 mutant strain, at 50.0 µM, active compounds read high
The panel holds about 79,000 compounds, 15% with a hit somewhere; the sample as a whole holds those more often.
Response key: criterion met means growth inhibition >= -10%; criterion not met means growth inhibition < -10%.

Exam item: decide whether the reported growth inhibition for CCOC(=O)C1CC1Cc1ccccc1 (stereo unspecified) is at least -10%.
criterion met

Exam item: decide whether the reported growth inhibition for O=C(O)COc1ccc(C(=O)O)cc1 is at least -10%.
criterion not met

Exam item: decide whether the reported growth inhibition for CC(=O)NC(C(=O)Nc1ccccc1)=C(C)C is at least -10%.
criterion met

Exam item: decide whether the reported growth inhibition for CN(C)N=Nc1ccc(C(=O)N/N=C/c2ccccc2[N+](=O)[O-])cc1 is at least -10%.
criterion not met

Let's switch to this molecule now.
Exam item: decide whether the reported growth inhibition for O=C1/C(=C/c2ccc(O)c(O)c2)CC/C1=C\c1ccc(O)c(O)c1 is at least -10%.
criterion not met
